# MEASUREMENT PROTOCOL: soluble fraction after stress (log2 fold change); higher = more stays soluble; pooled small domains, quantitative proteomics
# TEST CONTEXT: stress: pH 4
soluble fraction (log2) of 0.2 or higher: True. Under 0.2: False.

For orientation, consider the following solved cases.
HMPAAFALLTDREREIAALIAQRLTNREIAEKLYLSEGSVKQYVNQLYAKLGIEGDTRTKRRRLAEQAK False
HMTIATLGERIRKLRKERGLTLAELAGDKLSKGMLSLIENNRAKPSMESLEYIAKRLGVEPAELLE True
HMIAVLKQGVSKQQVENLITWFRSRGLDVHISEGKFQTIIGLIGDTSKVDIDLLNGLEIIESVKRI False
HMEYKNYYDSPVGRLELLSDGVSLTAVLFENQQGDGTREENTSLAIFKEATQWLDAYFKGDNPEITIPL True

Please tell me: is the sequence "HMKFPNVGENLRLLRQEMGISLDKASKMTGVSKAMLGQIERGESSPTVSTLWKISSGFKINFTTLLSE" at or over 0.2 in terms of soluble fraction (log2)?
True

====

# MEASUREMENT PROTOCOL: soluble fraction after stress (log2 fold change); higher = more stays soluble; pooled small domains, quantitative proteomics
# TEST CONTEXT: stress: pH 4
// soluble fraction (log2) lookup, one value per entry
Respond using a number only.

Solved entries:
HMQILVEGVEANQRLDLFLRARLTEFSRSRIQGLVKNGNVLVNGNIARQAYLVQVGDKIELDVPEPVA 0.112
HMQKLLGPFEDFVKIKLDKYPDTKAAQMHDWLKEHYPDFPEVTPKTVYNFVMYVRQRHNIPIPD -0.276

Then this sequence:
Quote soluble fraction (log2) reported for "HMFNLFPHLSVLRNITLAPQKVKGLNRSESNEIAMSLLERVGIPEQSDKFPSQLSGGQQQRVAIARALAM" please.
0.22

====

# MEASUREMENT PROTOCOL: soluble fraction after stress (log2 fold change); higher = more stays soluble; pooled small domains, quantitative proteomics
# TEST CONTEXT: stress: pH 4
Binned soluble fraction (log2); ranges: bottom = under -0.5, middle = from -0.5 up to -0.1, top = -0.1 and over

For orientation, consider the following solved cases.
HMDIRMLLSDREEEIMILLSKGLSISEAANRMQIGQASAATYLNRARRKLKAETVRQAVAIWTGD middle
HMAFIEIMTEGDADGRGFQYPIPTYSITRDFDWSETENNKLLFEMTAKYGTPYFSNYINSDMEPSDV bottom
HMVFKSAQEGLDFYSKQLNDVDATLGRIRRGEESGNGLYGSNRVKNLEEQRKKLDSFVTAYRNAVNAT top
HMGSFAADVGRMVRLGRAKRGISRRKLAADSGISERYLAQIEGGQGNPSVNVLKAIADAISVPVFELLPH middle
HMLNIVTIFEEQFGRPLSPIELNIIKDWKESDYSDEMIVKALKEAVKSQVLNFRYVEGILNNWAKNG bottom
HMIEQIELEARVPDELGGQRLDQVAAQMFDDFSRSRLTGWIRDGSLTADGQQLRPRDIVYGGTLLQLKAEQ middle

For this sequence, which bin applies? "HMARKISVEALGKYFPNSPMLAAAVAVTGVMKKDEFIHEMRASYKHKFAKKPEVIDGNMKALTMTFEA"
middle

For this sequence, which bin applies? "HMNGVPDMSPVPEGARNSTLHAWAFGRLKNHPDNETGIREDLFRRGHASGLQDAELDQIWKSIKRTL"
top

For this sequence, which bin applies? "HMKMSLKENLLELLQKSSGEFLSGERAAETLGVSRTAVWKAVTSLKNEGYNIESVTNRGYRFS"
top

For this sequence, which bin applies? "HMNDIQIILQEAVARLPKKQQLVFNMKYFDHLKYQEISEILGTSVGGLKASYFQAVKKIENYIINKH"
top

For this sequence, which bin applies? "HMNIEEQVVAEVLVKDFMKQLTPRDIHILELRKNGYTYQEIAGQLGYHTHSAVKKRVDRLAEQWLAYTQGH"
bottom

For this sequence, which bin applies? "HMPAAKARTWQEATHAFQRDFLLETLRRARFNAADAADQLGLARPALYTTAKRLGLDLVAERQRWEAEAH"
top

For this sequence, which bin applies? "HMSFGFFELKSSDTDKLFAYLNNNEHFGNIKEENGLVTAFLTSELDAQTLNKLLFDNGIIASHLVKRK"
bottom

For this sequence, which bin applies? "HMDIFGREAEVEQILQEVRFGDDPHYRLSIGILPVTGHAGAGKTALVRFIFHHEVARAEFTVRMWVHV"
bottom

For this sequence, which bin applies? "HMREPQMVTVNGDKVTHGHAYRSNVNPEDWYFTARINGQQLKPQKMEPADVAAYDKKEIGVPELMQR"
top

====

// soluble fraction (log2) lookup, one value per entry
# MEASUREMENT PROTOCOL: soluble fraction after stress (log2 fold change); higher = more stays soluble; pooled small domains, quantitative proteomics
# TEST CONTEXT: stress: pH 4

Quote soluble fraction (log2) reported for "HMTPSTVQVHVAGAVKNPGVYVLLENARNIDAITAAGGATSEADLERINLSEFIRDGQRVYVPYKGDPI" please.
0.0384

Quote soluble fraction (log2) reported for "HMNSQSGKGGVGYILETKYGLNLPPKMREAMGYAAKGVSDHLHKELHPDEIFDLFKKTFENVGQPYS" please.
0.197

Quote soluble fraction (log2) reported for "HMRWAAIMGREVAAHSTPESLVEGKLHIRTDTTAWATQLRLMSADIVRRLNEVLGEGTVLEVDVRG" please.
-1.12

Quote soluble fraction (log2) reported for "HMPVFSLTPRELEILEWMSTPNTYRQIAAQLSVSEETVRSHAKNILEKMRQPNRAQAVLAAVKMGLIKL" please.
-0.772

Quote soluble fraction (log2) reported for "HMKNFAPVWGEEGAEFGKEVDTGFRLRIVEKEKDVNDLFEVIQKHTIQSQWKPGSTGTESIYKRI" please.
-1.35

Quote soluble fraction (log2) reported for "HMNEQKVSSLLTPRQLAFIDEYLIDFNGAQAAIRAGYSHKTAGPQAARLLVNVNISRMIAERIEARNK" please.
-1.22

====

# MEASUREMENT PROTOCOL: soluble fraction after stress (log2 fold change); higher = more stays soluble; pooled small domains, quantitative proteomics
# TEST CONTEXT: stress: pH 4
// soluble fraction (log2) lookup, one value per entry

Solved entries:
HMDKSFLQSLHLIALGIVKNQMDPWELVNGWVEYYLKNKDKYIDHPNLKAVAVLKMKGLFIDHFRKS -2.21
HMALQDKYKELTDAATAAGVTDLQVREQDNVLYIDGTAPSGAVKDQLWAIYDKIDPNFVSGDLVLNVNVD -0.49
HMSKIRSEINKFSSDADKPILEWLFERYHWASQWRFVARFSEQRYGVLSYEINRVWEPTIEGRALYDQL -1.45
HMAANKIDEDRNTELLQVIQNKFPDADAATKKSVKEIMKEHDIPNFKNADDIPTAVLEQIVKVLNQ -0.128
HMHTDDDGITEAFPHLRLLSLGEDILDLLEKSRFIRKLNNELVYYVVDFREQNSIDGRRYHPSIYHNL -1.31

Quote soluble fraction (log2) reported for "HMDQILIHLKEGIDVTDVQPMLKALDLNVRMFNRDKNIIVISVLNRELDAIPQTIAALRPWEELFDSA" please.
-0.184

Quote soluble fraction (log2) reported for "HMDEALLRATLLDVLVKHHPKIGDKLDVVFALAKAWVSSGSDDDFEVLEKYMERLKPDEALMLASGFSNML" please.
-0.819

Quote soluble fraction (log2) reported for "HMQSLAAKINGYIVAQRTSIAAIAKEIGYSRVTVSRYLAGKYDSDPTGIEAKLAAFLAGQTGEE" please.
0.114

Quote soluble fraction (log2) reported for "HMEYQTVEKSEAEQIIQELEKAERLALKVYSKNDIITGISVSDGKSYYFSAELVPMLKNIIENPEIKIL" please.
-1.14

Quote soluble fraction (log2) reported for "HMTTIKLTQEDVEKIKSLPKRTFLIGNLQQTGLYDEKTRRFYYLDANGEWNGRLAIINTPPPPPPPP" please.
-0.0951

Quote soluble fraction (log2) reported for "HMNYTQAQIDRANAVSLEDFLRTQGETLIKSGREYRWKEHDSLTVRGNKWFRHSQSKGGYPIDFVMEFTA" please.
-0.0561

Quote soluble fraction (log2) reported for "HMALQDKYAELLTAANTMGVTNLAVAEKDGTLHVSGTAKSTADYDSLWALYDKIDPNMASGDLMMNI" please.
-0.0324

====

# MEASUREMENT PROTOCOL: soluble fraction after stress (log2 fold change); higher = more stays soluble; pooled small domains, quantitative proteomics
# TEST CONTEXT: stress: pH 4
MEASURED PARAMETER: soluble fraction (log2)
Respond using a number only.

HMALLSNEDIMFNLEFNRDLAVASNDGVSRDEFLRNKYGISEEEYNMLRARYGDGLNAARIKEYVGQRD -0.36
HMRDITAQSNASELYFEERDLEAFIEKLERLYPEIRYVNRLMIHSWGQQVVRFFDPDGNLIEVGTP -1.28

Then this sequence:
Quote soluble fraction (log2) reported for "HMNATPDMERYWASSAAEGRALEPLYAVSRGDGGEPLWWSPSRAQAERMAREEGGPLTVDRIDPP" please.
-0.0463
